IC50 values for MERTK (Homo sapiens) compiled from several publications are listed below.

Below are worked cases with known answers.
Param item = CCOc1ccn(-c2ccc(F)cc2)c(=O)c1C(=O)Nc1ccc(Oc2ccnc3cc(OC)c4c(c23)OCCO4)cc1Cl ; retrieve measured IC50.
≤ 50 nM

And then Cn1cc(-c2cnc(N)c(C(=O)N[C@@H]3CCN(C(=O)c4ccc(-c5ccccc5-c5ccccc5)cc4)C3)c2)cn1 , what is it?
> 1000 nM

Next molecule: Cn1cc(-c2cnc(N)c(C(=O)N[C@@H]3CCN(C(=O)c4ccc(-c5cnn(C6CCCC6)c5)cc4)C3)c2)cn1
> 1000 nM

Also need Cn1cc(-c2cnc(N)c(C(=O)NC[C@H]3CCCN3C(=O)c3cccc(-c4ccccc4)c3)c2)cn1 , thanks.
> 1000 nM

Same question for COCCN1C(C)(C)CC(Oc2ncc([C@H]3CC[C@H](O)CC3)c3nc(N[C@@H](C)COC)ncc23)CC1(C)C please.
≤ 100 nM

Others:
Query (molecule): CCCC(C)Nc1ncc2c(N3CC(N(C)C)C3)ncc([C@H]3CC[C@H](O)CC3)c2n1 (stereo partly shown) ; field requested: IC50
≤ 100 nM

CC(C)Nc1ncc2c(OC3CCOCC3)ncc(-c3cccc(CC(=O)O)c3)c2n1 ?
1000 to 10000 nM
